Data credit: PubChem BioAssay (NCI)

Recorded TGI values for a group of compounds are listed next.
- System: SF-268 CNS
- RUN DESCRIPTION: NCI tumour cell line growth inhibition, 48 h

Worked set:
- COMPOUND: "Nc1ccc(/C=C/C(=O)NCc2cc3cc(-c4ccc(C(=O)N5CCC(F)(F)CC5)cc4)cc(-c4ccc(F)cc4)c3o2)cn1"
  SYSTEM TESTED: "SF-268 CNS"
  TGI: "> 100 µM"
- COMPOUND: "O=C(O)[C@@H](Cc1ccc2ccccc2c1)NC(=O)n1c2ccccc2c2ccccc21"
  SYSTEM TESTED: "SF-268 CNS"
  TGI: "36.2 µM"
- COMPOUND: "COc1ccc(CN2CCC/C=C/CC(Cl)(Cl)C2=O)cc1"
  SYSTEM TESTED: "SF-268 CNS"
  TGI: "> 100 µM"
- COMPOUND: "N#Cc1c(-c2ccccc2)cc(-c2ccc(Cl)cc2)[nH]c1=S"
  SYSTEM TESTED: "SF-268 CNS"
  TGI: "> 100 µM"
- COMPOUND: "COc1ccc(COCC[C@H](C)OC2OC(CO[Si](C)(C)C(C)(C)C)C(OC(=O)CCCN=[N+]=[N-])C(OC(=O)CCCN=[N+]=[N-])C2OC(=O)CCCN=[N+]=[N-])cc1 (stereo partly drawn)"
  SYSTEM TESTED: "SF-268 CNS"
  TGI: "> 100 µM"

(Q) Please report the recorded TGI for COC(=O)C1(C(=O)OC)CC(=O)c2cc3c(cc2-c2c(cc(OC)c(OC)c2OC)C1)OCO3 .
(A) > 211 µM

(Q) Please report the recorded TGI for CN(C)C(=O)O[C@H]1CN[C@H](C#Cc2cc3ncnc(Nc4ccc(OCc5cccc(F)c5)c(Cl)c4)c3s2)C1 .
(A) > 25 µM

(Q) Please report the recorded TGI for S=c1cc(-c2ccc3c(c2)OCO3)s[nH]1 .
(A) > 100 µM
